Reference source: paper PMC7949025

Biological target: T1, biotinylated V112E-PNT domain (ETV6 residues 43-135, V112E, with Avitag) (human, UniProt P41212 43-135, V112E, biotin on the Avitag (~50 to 95% biotinylated))
T1 construct: ETV6, human, residues 43-135 of V112E ETV6; also called biotinylated V112E-PNT domain ligand; V112E-PNT domain ligand; source: E. coli BL21 (λDE3) co-transformed with pET21a-BirA, purified (Ni-NTA, thrombin cleavage); not shown: His6, N-terminal, cleaved; Avitag, N-terminal, kept
T1 sequence (looked up): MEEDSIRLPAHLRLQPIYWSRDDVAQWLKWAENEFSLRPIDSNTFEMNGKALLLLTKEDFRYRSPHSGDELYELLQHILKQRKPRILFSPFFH
Assay: SPR; biotinylated V112E-PNT domain ligand captured on streptavidin Sensor Chip SA, PNT domain analytes flowed; Biacore X100, 25 °C, HBS-EP+ (10 mM HEPES, 150 mM NaCl, 3 mM EDTA, 0.05% v/v Tween-20, pH 7.4); analyte 0.2-60 nM, re-run at 20-6000 nM if KD > 60 nM
Conditions: both partners purified
pKd: −log10 of the molar value.

{"Binder": "R103A-A93D-PNT domain (domain or fragment, human, UniProt P41212 40-125, looked up, ETV6 PNT domain, human; source: E. coli BL21 (λDE3), purified (Ni-NTA, thrombin cleavage); not shown: His6, N-terminal, cleaved) ALRMEEDSIRLPAHLRLQPIYWSRDDVAQWLKWAENEFSLRPIDSNTFEMNGKDLLLLTKEDFAYRSPHSGDVLYELLQHILKQRK", "pKd": 7.68}
{"Binder": "K99A-A93D-PNT domain (domain or fragment, human, UniProt P41212 40-125, looked up, ETV6 PNT domain, human; source: E. coli BL21 (λDE3), purified (Ni-NTA, thrombin cleavage); not shown: His6, N-terminal, cleaved) ALRMEEDSIRLPAHLRLQPIYWSRDDVAQWLKWAENEFSLRPIDSNTFEMNGKDLLLLTAEDFRYRSPHSGDVLYELLQHILKQRK", "pKd": 6.03}
{"Binder": "Y114A-A93D-PNT domain (domain or fragment, human, UniProt P41212 40-125, looked up, ETV6 PNT domain, human; source: E. coli BL21 (λDE3), purified (Ni-NTA, thrombin cleavage); not shown: His6, N-terminal, cleaved) ALRMEEDSIRLPAHLRLQPIYWSRDDVAQWLKWAENEFSLRPIDSNTFEMNGKDLLLLTKEDFRYRSPHSGDVLAELLQHILKQRK", "pKd": 6.89}
{"Binder": "F77A-A93D-PNT domain (domain or fragment, human, UniProt P41212 40-125, looked up, ETV6 PNT domain, human; source: E. coli BL21 (λDE3), purified (Ni-NTA, thrombin cleavage); not shown: His6, N-terminal, cleaved) ALRMEEDSIRLPAHLRLQPIYWSRDDVAQWLKWAENEASLRPIDSNTFEMNGKDLLLLTKEDFRYRSPHSGDVLYELLQHILKQRK", "pKd": 6.35}
{"Binder": "L79A-A93D-PNT domain (domain or fragment, human, UniProt P41212 40-125, looked up, ETV6 PNT domain, human; source: E. coli BL21 (λDE3), purified (Ni-NTA, thrombin cleavage); not shown: His6, N-terminal, cleaved) ALRMEEDSIRLPAHLRLQPIYWSRDDVAQWLKWAENEFSARPIDSNTFEMNGKDLLLLTKEDFRYRSPHSGDVLYELLQHILKQRK", "pKd": 6.70}
{"Binder": "V112A-A93D-PNT domain (domain or fragment, human, UniProt P41212 40-125, looked up, ETV6 PNT domain, human; source: E. coli BL21 (λDE3), purified (Ni-NTA, thrombin cleavage); not shown: His6, N-terminal, cleaved) ALRMEEDSIRLPAHLRLQPIYWSRDDVAQWLKWAENEFSLRPIDSNTFEMNGKDLLLLTKEDFRYRSPHSGDALYELLQHILKQRK", "pKd": 6.26}
{"Binder": "S47A-A93D-PNT domain (domain or fragment, human, UniProt P41212 40-125, looked up, ETV6 PNT domain, human; source: E. coli BL21 (λDE3), purified (Ni-NTA, thrombin cleavage); not shown: His6, N-terminal, cleaved) ALRMEEDAIRLPAHLRLQPIYWSRDDVAQWLKWAENEFSLRPIDSNTFEMNGKDLLLLTKEDFRYRSPHSGDVLYELLQHILKQRK", "pKd": 8.16}
{"Binder": "H119A-A93D-PNT domain (domain or fragment, human, UniProt P41212 40-125, looked up, ETV6 PNT domain, human; source: E. coli BL21 (λDE3), purified (Ni-NTA, thrombin cleavage); not shown: His6, N-terminal, cleaved) ALRMEEDSIRLPAHLRLQPIYWSRDDVAQWLKWAENEFSLRPIDSNTFEMNGKDLLLLTKEDFRYRSPHSGDVLYELLQAILKQRK", "pKd": 7.89}
{"Binder": "S78A-A93D-PNT domain (domain or fragment, human, UniProt P41212 40-125, looked up, ETV6 PNT domain, human; source: E. coli BL21 (λDE3), purified (Ni-NTA, thrombin cleavage); not shown: His6, N-terminal, cleaved) ALRMEEDSIRLPAHLRLQPIYWSRDDVAQWLKWAENEFALRPIDSNTFEMNGKDLLLLTKEDFRYRSPHSGDVLYELLQHILKQRK", "pKd": 8.48}
